Where do these numbers come from? They come from PubChem BioAssay (EPA / NIEHS).

Assay: CCTE_Shafer_MEA_acute_burst_duration_mean: CCTE's Neural Acute Assay for Mean Burst Duration, Shafer Lab (AID 2284014);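 further: hits are decreases in mean burst duration relative to DMSO controls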
Calls of active or inactive are those of the source. How the source made its calls: active means hit-call score of the fitted dose curve at least 0.9, where 1 is the maximum; inactive means score below 0.9.
Classes used: active, inactive

molecule=Cc1ccn2nc(S(=O)(=O)Nc3c(F)cccc3F)nc2n1 class=inactive
molecule=CC(C)[C@H](C(=O)O[C@H](C#N)c1cccc(Oc2ccccc2)c1)c1ccc(Cl)cc1 class=inactive
molecule="C#CCC1=C(C)C(OC(=O)C2C(C=C(C)C)C2(C)C)CC1=O (stereo not drawn)" class=active
molecule=Nc1c(Cl)cc([N+](=O)[O-])cc1Cl class=inactive
molecule="CCOP(=O)(NC(C)C)Oc1ccc(SC)c(C)c1 (stereo not drawn)" class=inactive
molecule=COc1cc(OC)nc(Sc2cccc(Cl)c2C(=O)O)n1 class=inactive
molecule=C[N+]1(C)CCCCC1 class=inactive
molecule=C[Si](Cn1cncn1)(c1ccc(F)cc1)c1ccc(F)cc1 class=inactive
molecule=CN(C)NC(=O)CCC(=O)O class=inactive
molecule=CCOP(=S)(OCC)SCCSCC class=inactive
molecule=CC(C)N(C(=O)SCC(Cl)=C(Cl)Cl)C(C)C class=inactive
molecule=CNC(=O)ON=C(SC)C(=O)N(C)C class=inactive
molecule=N#CSCSC#N class=inactive
